- test_description: in vitro
- Type: in vitro ADME, rat
- condition_label: rat, microsomes; RLM (male Sprague-Dawley) 0.50 mg/mL, NADPH 1 mM, 1 μM compound, pH 7.4, 37° C., 60 min; read-out: half-life (t1/2)
For each record, write down the corresponding half-life.
Report the value in min with no unit label.

Give the reported half-life for this molecule. CCN(CC)C(=O)[C@@H]1C=C2c3cccc4[nH]cc(c34)C[C@H]2N(CC2CCCC2)C1 [Compound 90]
3.7

Give the reported half-life for this molecule. CCN(CC)C(=O)[C@@H]1C=C2c3cccc4[nH]cc(c34)C[C@H]2N(Cc2ccccc2)C1 [Compound 82]
7.3

Give the reported half-life for this molecule. CCN(CC)C(=O)[C@H]1C=C2c3cccc4[nH]cc(c34)C[C@H]2N(CC2CCCCC2)C1 [Compound 89a]
4.6

Give the reported half-life for this molecule. CCN(CC)C(=O)[C@@H]1C=C2c3cccc4[nH]cc(c34)C[C@H]2N(Cc2ccc3ccccc3c2)C1 [Compound 100]
8.3

Give the reported half-life for this molecule. CCCN(CC)C(=O)[C@@H]1C=C2c3cccc4[nH]cc(c34)C[C@H]2N(Cc2cccc(OC)c2)C1 [Compound 93]
3.3

Give the reported half-life for this molecule. CCN(CC)C(=O)[C@@H]1C=C2c3cccc4[nH]cc(c34)C[C@H]2N(Cc2ccon2)C1 [Compound 70]
28.9

Give the reported half-life for this molecule. CCN(CC)C(=O)[C@@H]1C=C2c3cccc4[nH]cc(c34)C[C@H]2N(Cc2cccc(O)c2)C1 [Compound 62]
6.5

Give the reported half-life for this molecule. O=C([C@H]1C=C2c3cccc4[nH]cc(c34)C[C@H]2N(Cc2ccccc2)C1)N1CCCC1 [Compound 84a]
5.4

Give the reported half-life for this molecule. [2H]C([2H])(c1cccc(OC)c1)N1C[C@H](C(=O)N(CC)CC)C=C2c3cccc4[nH]cc(c34)C[C@H]21 [Compound 68]
3.9

Give the reported half-life for this molecule. CCN(CC)C(=O)[C@@H]1C=C2c3cccc4[nH]cc(c34)C[C@H]2N(Cc2cccc(F)c2)C1 [Compound 52]
4.6

Give the reported half-life for this molecule. CCN(C)C(=O)[C@@H]1C=C2c3cccc4[nH]cc(c34)C[C@H]2N(CC2CCCC2)C1 [Compound 103]
7.5

Give the reported half-life for this molecule. CCNC(=O)[C@@H]1C=C2c3cccc4[nH]cc(c34)C[C@H]2N(Cc2cccc(OC)c2)C1 [Compound 63]
2

Give the reported half-life for this molecule. CCN(C)C(=O)[C@H]1C=C2c3cccc4[nH]cc(c34)C[C@H]2N(Cc2ccccc2)C1 [Compound 85a]
3.5

Give the reported half-life for this molecule. CCCN(CC)C(=O)[C@@H]1C=C2c3cccc4[nH]cc(c34)C[C@H]2N(Cc2ccccc2)C1 [Compound 86]
11.9

Give the reported half-life for this molecule. CCN(CC)C(=O)[C@@H]1C=C2c3cccc4[nH]cc(c34)C[C@H]2N(Cc2cccc(C#N)c2)C1 [Compound 76]
12.1

Give the reported half-life for this molecule. COc1cccc(CN2C[C@H](C(=O)N3[C@@H](C)C[C@@H]3C)C=C3c4cccc5[nH]cc(c45)C[C@H]32)c1 [Compound 94]
3.9

Give the reported half-life for this molecule. C[C@H]1C[C@H](C)N1C(=O)[C@@H]1C=C2c3cccc4[nH]cc(c34)C[C@H]2N(Cc2ccccc2)C1 [Compound 87]
23

Give the reported half-life for this molecule. CN(C)C(=O)[C@@H]1C=C2c3cccc4[nH]cc(c34)C[C@H]2N(Cc2ccccc2)C1 [Compound 102]
10.3

Give the reported half-life for this molecule. CCN(CC)C(=O)[C@@H]1C=C2c3cccc4[nH]cc(c34)C[C@H]2N(Cc2ccncc2)C1 [Compound 51]
18.8

Give the reported half-life for this molecule. CCN(CC)C(=O)[C@@H]1C=C2c3cccc4[nH]cc(c34)C[C@H]2N(Cc2ccc(F)c(F)c2)C1 [Compound 54]
12.6

Give the reported half-life for this molecule. CCN(CC)C(=O)[C@@H]1C=C2c3cccc4[nH]cc(c34)C[C@H]2N(CC2CCCCC2)C1 [Compound 89]
5.7

Give the reported half-life for this molecule. CCCN(CC)C(=O)[C@H]1C=C2c3cccc4[nH]cc(c34)C[C@H]2N(Cc2ccccc2)C1 [Compound 86a]
4.2

Give the reported half-life for this molecule. CCN(CC)C(=O)[C@@H]1C=C2c3cccc4[nH]cc(c34)C[C@H]2N(Cc2ncco2)C1 [Compound 74]
19.3

Give the reported half-life for this molecule. CCN(CC)C(=O)[C@H]1C=C2c3cccc4[nH]cc(c34)C[C@H]2N(CC2CCCC2)C1 [Compound 90a]
4.8

Give the reported half-life for this molecule. CCN(C)C(=O)[C@@H]1C=C2c3cccc4[nH]cc(c34)C[C@H]2N(Cc2ccccc2)C1 [Compound 85]
10.5

Give the reported half-life for this molecule. CCN(CC)C(=O)[C@@H]1C=C2c3cccc4[nH]cc(c34)C[C@H]2N(Cc2cccc(C)c2)C1 [Compound 98]
1.9

Give the reported half-life for this molecule. CCNC(=O)[C@@H]1C=C2c3cccc4[nH]cc(c34)C[C@H]2N(Cc2cccc(O)c2)C1 [Compound 64]
6.2

Give the reported half-life for this molecule. CCN(CC)C(=O)[C@@H]1C=C2c3cccc4[nH]cc(c34)C[C@H]2N(Cc2ccccc2C)C1 [Compound 99]
8

* * *

- test_description: in vitro
- Assay type: in vitro ADME, mouse
- condition_label: MLM (male CD-1) 0.50 mg/mL, NADPH 1 mM, 1 μM compound, pH 7.4, 37° C., 60 min
Outcome: 1.0 for half-life (t1/2) of at least 2 min; 0.0 for anything lower.

Kindly determine if half-life (t1/2) recorded for "CCN(CC)C(=O)[C@@H]1C=C2c3cccc4[nH]cc(c34)C[C@H]2N(Cc2ccnc(OC)c2)C1" is above or exactly 2 min.
1.0

Kindly determine if half-life (t1/2) recorded for "CC[C@@H](C)NC(=O)[C@H]1C=C2c3cccc4[nH]cc(c34)C[C@H]2N(CC)C1" is above or exactly 2 min.
0.0

Kindly determine if half-life (t1/2) recorded for "CCN(CC)C(=O)[C@@H]1C=C2c3cccc4[nH]cc(c34)C[C@H]2N(CCc2ccc(OC)cc2)C1" is above or exactly 2 min.
0.0

Kindly determine if half-life (t1/2) recorded for "CCC[C@@H](C)NC(=O)[C@@H]1C=C2c3cccc4[nH]cc(c34)C[C@H]2N(CCC)C1" is above or exactly 2 min.
0.0

Kindly determine if half-life (t1/2) recorded for "CCN(CC)C(=O)[C@@H]1C=C2c3cccc4[nH]cc(c34)C[C@H]2NC1" is above or exactly 2 min.
1.0

Kindly determine if half-life (t1/2) recorded for "CCN(CC)C(=O)[C@@H]1C=C2c3cccc4[nH]cc(c34)C[C@H]2N(Cc2ccc(OC)cc2)C1" is above or exactly 2 min.
1.0

Kindly determine if half-life (t1/2) recorded for "CCN(CC)C(=O)[C@@H]1C=C2c3cccc4[nH]cc(c34)C[C@H]2N(CCc2ccccn2)C1" is above or exactly 2 min.
0.0

Kindly determine if half-life (t1/2) recorded for "CCCN1C[C@H](C(=O)N(CC)CC)C=C2c3cccc4[nH]cc(c34)C[C@H]21" is above or exactly 2 min.
1.0

Kindly determine if half-life (t1/2) recorded for "CCN(CC)C(=O)[C@@H]1C=C2c3cccc4[nH]cc(c34)C[C@H]2N(CCCF)C1" is above or exactly 2 min.
1.0

Kindly determine if half-life (t1/2) recorded for "C=CCN1C[C@H](C(=O)N[C@H](C)CC)C=C2c3cccc4[nH]cc(c34)C[C@H]21" is above or exactly 2 min.
1.0

Kindly determine if half-life (t1/2) recorded for "CCN(CC)C(=O)[C@@H]1C=C2c3cccc4[nH]cc(c34)C[C@H]2N(Cc2cccc(OC)c2)C1" is above or exactly 2 min.
1.0

Kindly determine if half-life (t1/2) recorded for "CCN(CC)C(=O)[C@@H]1C=C2c3cccc4[nH]cc(c34)C[C@H]2N(Cc2ccccn2)C1" is above or exactly 2 min.
1.0

Kindly determine if half-life (t1/2) recorded for "CCN(CC)C(=O)[C@@H]1C=C2c3cccc4[nH]cc(c34)C[C@H]2N(Cc2ccccc2O)C1" is above or exactly 2 min.
0.0

Kindly determine if half-life (t1/2) recorded for "[2H]C([2H])([2H])Oc1cccc(CN2C[C@H](C(=O)N(CC)CC)C=C3c4cccc5[nH]cc(c45)C[C@H]32)c1" is above or exactly 2 min.
1.0

Kindly determine if half-life (t1/2) recorded for "CCCN1C[C@@H](C(=O)N[C@H](C)CC)C=C2c3cccc4[nH]cc(c34)C[C@H]21" is above or exactly 2 min.
0.0

* * *

- tested_system: 5-HT2B receptor (Homo sapiens, UniProt P41595)
- Construct: expressed in transfected cells; host or cells: HEK293, stably transfected
- Sequence (P41595 whole entry): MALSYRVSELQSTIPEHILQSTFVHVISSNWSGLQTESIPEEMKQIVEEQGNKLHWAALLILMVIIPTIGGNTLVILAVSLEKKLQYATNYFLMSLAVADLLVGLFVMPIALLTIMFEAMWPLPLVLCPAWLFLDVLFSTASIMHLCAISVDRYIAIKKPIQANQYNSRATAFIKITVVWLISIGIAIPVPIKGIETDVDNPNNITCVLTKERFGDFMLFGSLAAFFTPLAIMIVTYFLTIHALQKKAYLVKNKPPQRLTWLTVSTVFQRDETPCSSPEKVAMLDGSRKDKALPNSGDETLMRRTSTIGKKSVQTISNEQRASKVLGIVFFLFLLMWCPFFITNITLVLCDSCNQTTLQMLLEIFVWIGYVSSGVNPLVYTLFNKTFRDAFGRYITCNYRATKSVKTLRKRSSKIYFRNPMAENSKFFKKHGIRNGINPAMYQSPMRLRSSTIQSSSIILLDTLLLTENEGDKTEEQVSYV
- test_description: 5-HT2B receptor radioligand binding ([3H]LSD)
- condition_label: read-out: 5-HT2B Receptor Ki
For each record, write down the corresponding pKi.
// field semantics: pKi = negative decimal log of concentration (mol/L)

Give the reported pKi for this compound. CCN(CC)C(=O)[C@@H]1C=C2c3cccc4[nH]cc(c34)C[C@H]2N(Cc2ccc(Cl)cc2)C1 [Compound 50]
7.27

Give the reported pKi for this compound. CCN(C)C(=O)[C@@H]1C=C2c3cccc4[nH]cc(c34)C[C@H]2N(Cc2ccccc2)C1 [Compound 85]
7.49

Give the reported pKi for this compound. CCN(CC)C(=O)[C@@H]1C=C2c3cccc4[nH]cc(c34)C[C@H]2N(Cc2ccc(F)cc2)C1 [Compound 49]
7.77

Give the reported pKi for this compound. CCC[C@@H](C)NC(=O)[C@@H]1C=C2c3cccc4[nH]c(Br)c(c34)C[C@H]2N(C)C1 [Compound 45]
8.44

Give the reported pKi for this compound. CCN(CC)C(=O)[C@@H]1C=C2c3cccc4[nH]cc(c34)C[C@H]2N(Cc2cccc(OC)c2)C1 [Compound 18]
6.73

Give the reported pKi for this compound. CCN(CC)C(=O)[C@@H]1C=C2c3cccc4[nH]cc(c34)C[C@H]2N(CC2CCCCC2)C1 [Compound 89]
8.01

Give the reported pKi for this compound. CCC(CC)NC(=O)[C@@H]1C=C2c3cccc4[nH]c(Br)c(c34)C[C@H]2N(C)C1 [Compound 44]
8.03
